Target or test system: ADAMTS-5 recombinant protein (Homo sapiens, UniProt Q9UNA0)
Construct: purchased R&D Systems 2198-AD
Protocol: In vitro fluorescence (FRET-peptide) enzymatic assay of ADAMTS-5 activity
Assay type: biochemical
Experimental context: FRET peptide substrate 8 μM, 10 nM enzyme, 37° C. 3 hours
Quantity kind: IC50 (nM)

> print(dat)
                                    compound  quantity.kind  obs.value
 1  C[C@@H]1c2cc(C(F)(F)F)c(Cl)cc2CN1C(=O)NC[C@@]1(C2CC2)NC(=O)NC1=O           IC50          8
 2  O=C1NC(=O)[C@](CNC(=O)N2Cc3cc(Cl)c(C(F)(F)F)cc3C2)(C2CC2)N1           IC50         40
 3  C[C@@H]1c2cc(Cl)c(Cl)cc2CN1C(=O)NC[C@@]1(C2CC2)NC(=O)NC1=O           IC50          9
 4  O=C1NC(=O)C(CNC(=O)N2Cc3cc(Cl)c(Cl)cc3C2)(C2CC2)N1 (stereo not shown)           IC50         38
 5  [2H]C1([2H])c2cc(Cl)c(Cl)cc2C(C)N1C(=O)NC[C@@]1(C2CC2)NC(=O)NC1=O (stereo partly shown)           IC50         30
 6  O=C1NC(=O)[C@](CNC(=O)N2Cc3cc(Cl)c(Cl)cc3C2)(C2CC2)N1           IC50         23
 7  CC1c2cc(Cl)c(Cl)cc2CN1C(=O)NC[C@@]1(C2CC2)NC(=O)NC1=O (stereo partly shown)           IC50         36
 8  O=C1NC(=O)C(CNC(=O)N2Cc3ccc(C(F)(F)F)cc3C2)(C2CC2)N1 (stereo not shown)           IC50        100
 9  [2H]C1([2H])c2cc(Cl)c(C(F)(F)F)cc2C(C)N1C(=O)NC[C@@]1(C2CC2)NC(=O)NC1=O (stereo partly shown)           IC50         30
10  CC1c2cc(C(F)(F)F)c(Cl)cc2CN1C(=O)NC[C@@]1(C2CC2)NC(=O)NC1=O (stereo partly shown)           IC50         22

====

System: mouse femoral head cartilage
Protocol: Mouse cartilage explant assay (IL-1α induced GAG release)
Format: cell-based
Experimental context: inhibition of GAG release, compound 2 μM, IL-1α 1 ng/mL, 72 hours, read-out: Inhibiton % at 2 μM
Quantity kind: inhibition at 2 µM (%)

> print(dat)
                                   compound       quantity.kind  unit.of.measurement  obs.value
1  O=C1NC(=O)[C@](CNC(=O)N2Cc3cc(Cl)c(Cl)cc3C2)(C2CC2)N1  inhibition at 2 µM                    %         47
2  O=C1NC(=O)C(CNC(=O)N2Cc3ccc(C(F)(F)F)cc3C2)(C2CC2)N1 (stereo not shown)  inhibition at 2 µM                    %          0
3  C[C@@H]1c2cc(C(F)(F)F)c(Cl)cc2CN1C(=O)NC[C@@]1(C2CC2)NC(=O)NC1=O  inhibition at 2 µM                    %         61
4  C[C@@H]1c2cc(Cl)c(Cl)cc2CN1C(=O)NC[C@@]1(C2CC2)NC(=O)NC1=O  inhibition at 2 µM                    %         14

====

Catalogue of IC50 values
Target or test system: ADAMTS-5 recombinant protein (Homo sapiens)
Construct: purchased R&D Systems 2198-AD
Sequence (Q9UNA0 262-622 limits assumed): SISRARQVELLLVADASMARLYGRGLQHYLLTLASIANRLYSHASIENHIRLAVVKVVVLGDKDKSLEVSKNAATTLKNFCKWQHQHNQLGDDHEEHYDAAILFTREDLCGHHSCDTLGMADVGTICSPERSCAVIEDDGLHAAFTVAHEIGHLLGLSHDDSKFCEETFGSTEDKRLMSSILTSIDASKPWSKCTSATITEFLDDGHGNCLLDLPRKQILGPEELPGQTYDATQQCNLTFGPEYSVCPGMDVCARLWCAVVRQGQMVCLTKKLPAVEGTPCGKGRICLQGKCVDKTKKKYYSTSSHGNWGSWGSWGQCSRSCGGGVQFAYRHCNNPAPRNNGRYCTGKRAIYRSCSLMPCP
Protocol: Aggrecan-IGD enzymatic assay for ADAMTS-5 inhibitors (ARGSVIL-peptide ELISA)
Format: biochemical
Experimental context: aggrecan-IGD protein substrate, 37° C. 45 minutes
Quantity kind: IC50

> print(dat)
                                   molecule  obs.value
1  CC1c2cc(Cl)c(Cl)cc2CN1C(=O)NC[C@@]1(C2CC2)NC(=O)NC1=O (stereo partly drawn)      44 nM
2  O=C1NC(=O)C(CNC(=O)N2Cc3ccc(C(F)(F)F)cc3C2)(C2CC2)N1 (stereo not drawn)     140 nM
3  O=C1NC(=O)C(CNC(=O)N2Cc3cc(Cl)c(Cl)cc3C2)(C2CC2)N1 (stereo not drawn)      60 nM
4  [2H]C1([2H])c2cc(Cl)c(C(F)(F)F)cc2C(C)N1C(=O)NC[C@@]1(C2CC2)NC(=O)NC1=O (stereo partly drawn)      34 nM
5  O=C1NC(=O)[C@](CNC(=O)N2Cc3cc(Cl)c(C(F)(F)F)cc3C2)(C2CC2)N1      40 nM
6  O=C1NC(=O)[C@](CNC(=O)N2Cc3cc(Cl)c(Cl)cc3C2)(C2CC2)N1      26 nM
7  CC1c2cc(C(F)(F)F)c(Cl)cc2CN1C(=O)NC[C@@]1(C2CC2)NC(=O)NC1=O (stereo partly drawn)      34 nM
8  C[C@@H]1c2cc(Cl)c(Cl)cc2CN1C(=O)NC[C@@]1(C2CC2)NC(=O)NC1=O      17 nM
9  C[C@@H]1c2cc(C(F)(F)F)c(Cl)cc2CN1C(=O)NC[C@@]1(C2CC2)NC(=O)NC1=O      17 nM

====

Target or test system: ADAMTS-4 recombinant protein (Homo sapiens)
Sequence (O75173 213-685 limits assumed): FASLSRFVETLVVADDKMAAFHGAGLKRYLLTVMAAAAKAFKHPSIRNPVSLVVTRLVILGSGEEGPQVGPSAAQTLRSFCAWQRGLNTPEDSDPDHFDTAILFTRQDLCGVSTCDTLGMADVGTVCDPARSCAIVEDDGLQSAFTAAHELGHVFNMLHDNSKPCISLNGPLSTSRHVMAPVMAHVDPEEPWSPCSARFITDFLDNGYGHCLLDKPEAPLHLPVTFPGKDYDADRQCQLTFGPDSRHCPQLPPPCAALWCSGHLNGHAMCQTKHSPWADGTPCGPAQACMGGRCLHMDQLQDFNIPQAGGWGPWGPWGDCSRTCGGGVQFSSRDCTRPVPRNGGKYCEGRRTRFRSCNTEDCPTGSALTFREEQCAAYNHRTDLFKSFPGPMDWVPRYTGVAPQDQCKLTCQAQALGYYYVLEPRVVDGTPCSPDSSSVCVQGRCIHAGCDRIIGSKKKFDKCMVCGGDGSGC
Protocol: In vitro fluorescence (FRET-peptide) enzymatic assay of ADAMTS-4 activity
Experimental context: FRET peptide substrate 15 μM, 10 nM enzyme, 37° C. 3 hours
pIC50: −log10 of the molar value.
Quantity kind: pIC50

> print(dat)
                                    compound  obs.value
 1  O=C1NC(=O)C(CNC(=O)N2Cc3ccc(C(F)(F)F)cc3C2)(C2CC2)N1 (stereo not shown)       6.55
 2  O=C1NC(=O)[C@](CNC(=O)N2Cc3cc(Cl)c(Cl)cc3C2)(C2CC2)N1       7.80
 3  C[C@@H]1c2cc(Cl)c(Cl)cc2CN1C(=O)NC[C@@]1(C2CC2)NC(=O)NC1=O       7.47
 4  O=C1NC(=O)[C@](CNC(=O)N2Cc3cc(Cl)c(C(F)(F)F)cc3C2)(C2CC2)N1       7.41
 5  [2H]C1([2H])c2cc(Cl)c(C(F)(F)F)cc2C(C)N1C(=O)NC[C@@]1(C2CC2)NC(=O)NC1=O (stereo partly shown)       7.28
 6  O=C1NC(=O)C(CNC(=O)N2Cc3cc(Cl)c(Cl)cc3C2)(C2CC2)N1 (stereo not shown)       7.51
 7  CC1c2cc(Cl)c(Cl)cc2CN1C(=O)NC[C@@]1(C2CC2)NC(=O)NC1=O (stereo partly shown)       7.38
 8  [2H]C1([2H])c2cc(Cl)c(Cl)cc2C(C)N1C(=O)NC[C@@]1(C2CC2)NC(=O)NC1=O (stereo partly shown)       7.04
 9  CC1c2cc(C(F)(F)F)c(Cl)cc2CN1C(=O)NC[C@@]1(C2CC2)NC(=O)NC1=O (stereo partly shown)       7.48
10  C[C@@H]1c2cc(C(F)(F)F)c(Cl)cc2CN1C(=O)NC[C@@]1(C2CC2)NC(=O)NC1=O       7.92
